target: mu opiate receptor (MOR) (Rattus norvegicus, UniProt P33535); construct: from tissue; host or cells: striatum (membrane preparation); test: MOR agonist activity using [35S]GTPgS binding assay in striatal membranes; type: biochemical; details: 0.1 μM compound as agonist; Series C-1 table
Sequence (P33535 whole entry): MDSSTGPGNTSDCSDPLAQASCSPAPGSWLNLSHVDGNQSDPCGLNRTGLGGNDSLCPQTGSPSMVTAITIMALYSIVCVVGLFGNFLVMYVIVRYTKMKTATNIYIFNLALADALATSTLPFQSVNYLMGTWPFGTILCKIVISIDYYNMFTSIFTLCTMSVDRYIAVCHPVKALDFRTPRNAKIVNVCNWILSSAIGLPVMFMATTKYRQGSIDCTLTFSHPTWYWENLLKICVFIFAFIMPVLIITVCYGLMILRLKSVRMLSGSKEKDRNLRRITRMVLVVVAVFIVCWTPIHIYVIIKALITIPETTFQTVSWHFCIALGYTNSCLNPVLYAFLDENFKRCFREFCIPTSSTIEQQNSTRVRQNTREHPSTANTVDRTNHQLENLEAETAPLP
quantity: MOR agonist activity ([35S]GTPgS binding to Gao) (%)

{"compound": "COc1cccc(S(=O)(=O)N2CCC3(CC2)OCCN3S(=O)(=O)c2cccc(OC)c2)c1 [Compound C0002]", "val": 88.4}
{"compound": "COc1ccc(S(=O)(=O)N2CCC3(CC2)OCCN3S(=O)(=O)c2ccc(C(C)=O)cc2)cc1 [Compound C0048]", "val": 209.1}
{"compound": "CC(=O)c1ccc(C(=O)N2CCC3(CC2)OCCN3C(=O)c2ccc(C(C)=O)cc2)cc1 [Compound C0054]", "val": 68.2}
{"compound": "O=S(=O)(c1ccc(Cl)cc1)N1CCC2(CC1)OCCN2S(=O)(=O)c1ccc(Cl)cc1 [Compound C0067]", "val": 142.7}
{"compound": "O=S(=O)(c1ccc(OC(F)(F)F)cc1)N1CCC2(CC1)OCCN2S(=O)(=O)c1ccc(OC(F)(F)F)cc1 [Compound C0006]", "val": 121.5}
{"compound": "CNc1ccc(S(=O)(=O)N2CCC3(CC2)OCCN3S(=O)(=O)c2ccc(NC)cc2)cc1 [Compound C0024]", "val": 178.4}
{"compound": "O=C1CN(Cc2ccccc2)C2(CCN(S(=O)(=O)c3cc(Cl)cc(Cl)c3O)CC2)N1 [Compound C0138M]", "val": 126.9}

* * *

target: mu opiate receptor (MOR) (Rattus norvegicus); construct: from tissue; host or cells: striatum (membrane preparation); experiment: MOR agonist activity using [35S]GTPgS binding assay in striatal membranes; type: biochemical; details: 1 μM compound as agonist; Series C-1 table
Flag rule - MOR agonist activity ([35S]GTPgS binding to Gao) less than 300% flags class 1; the remaining entries get class 0.

{"molecule": "Nc1ccc(C(=O)N2CCC3(CC2)OCCN3S(=O)(=O)c2ccc(N)cc2)cc1 [Compound C0023]", "class": "class 1"}
{"molecule": "O=S(=O)(c1ccc(Br)cc1Br)N1CCC2(CC1)OCCN2S(=O)(=O)c1ccc(Br)cc1Br [Compound C0070]", "class": "class 1"}
{"molecule": "Cc1ccc(S(=O)(=O)N2CCC3(CC2)OCCN3S(=O)(=O)c2ccc(C)cc2)cc1 [Compound C0001]", "class": "class 1"}
{"molecule": "COc1cc(S(=O)(=O)N2CCC3(CC2)OCCN3S(=O)(=O)c2cc(OC)c(OC)c(OC)c2)cc(OC)c1OC [Compound C0062]", "class": "class 0"}
{"molecule": "O=S(=O)(c1ccc(Br)cc1)N1CCC2(CC1)OCCN2S(=O)(=O)c1ccc(Br)cc1 [Compound C0025]", "class": "class 0"}
{"molecule": "O=S(=O)(c1ccc(OC(F)(F)F)cc1)N1CCC2(CC1)OCCN2S(=O)(=O)c1ccc(OC(F)(F)F)cc1 [Compound C0006]", "class": "class 1"}
{"molecule": "O=S(=O)(c1ccc(C(F)(F)F)cc1)N1CCC2(CC1)OCCN2S(=O)(=O)c1ccc(C(F)(F)F)cc1 [Compound C0012]", "class": "class 1"}
{"molecule": "COc1ccc(NC(=O)N2CCC3(CC2)OCCN3C(=O)Nc2ccc(OC)cc2)cc1 [Compound C0151M]", "class": "class 0"}
{"molecule": "COc1ccc(S(=O)(=O)N2CCC3(CC2)OCCN3S(=O)(=O)c2ccc(C(C)=O)cc2)cc1 [Compound C0048]", "class": "class 1"}
{"molecule": "COc1ccccc1S(=O)(=O)N1CCC2(CC1)OCCN2S(=O)(=O)c1ccccc1OC [Compound C0003]", "class": "class 1"}
{"molecule": "O=C1CN(Cc2ccccc2)C2(CCN(S(=O)(=O)c3cc(Cl)cc(Cl)c3O)CC2)N1 [Compound C0138M]", "class": "class 1"}
{"molecule": "CC(C)c1ccc(S(=O)(=O)N2CCC3(CC2)OCCN3S(=O)(=O)c2ccc(C(C)C)cc2)cc1 [Compound C0007]", "class": "class 1"}
{"molecule": "O=S(=O)(c1ccc2ccccc2c1)N1CCC2(CC1)OCCN2S(=O)(=O)c1ccc2ccccc2c1 [Compound C0140M]", "class": "class 1"}
{"molecule": "O=S(=O)(c1cccs1)N1CCC2(CC1)OCCN2S(=O)(=O)c1cccs1 [Compound C0141M]", "class": "class 1"}
{"molecule": "N#Cc1ccc(S(=O)(=O)N2CCC3(CC2)OCCN3S(=O)(=O)c2ccc(C#N)cc2)cc1 [Compound C0008]", "class": "class 1"}
{"molecule": "CNc1ccc(S(=O)(=O)N2CCC3(CC2)OCCN3S(=O)(=O)c2ccc(NC)cc2)cc1 [Compound C0024]", "class": "class 1"}
{"molecule": "O=S(=O)(c1cccc2cccnc12)N1CCC2(CC1)OCCN2S(=O)(=O)c1cccc2cccnc12 [Compound C0143M]", "class": "class 1"}
{"molecule": "COc1ccc(C(=O)N2CCC3(CC2)OCCN3S(=O)(=O)c2ccc(OC)cc2)cc1 [Compound C0018]", "class": "class 1"}
{"molecule": "C[C@@H](NC(=O)[C@@H](N)Cc1ccc(O)cc1)C(=O)NCC(=O)N(C)[C@@H](Cc1ccccc1)C(=O)NCCO [DAMGO, [D-Ala2, N-MePhe4, Gly-ol]-enkephalin, reference compound]", "class": "class 1"}
{"molecule": "CC(=O)c1ccc(S(=O)(=O)N2CCC3(CC2)OCC(CCCCN(C)C)N3S(=O)(=O)c2ccc(C(C)=O)cc2)cc1 (stereo not drawn) [Compound C0080]", "class": "class 1"}
{"molecule": "O=S(=O)(c1ccccc1)N1CCC2(CC1)OCCN2S(=O)(=O)c1ccccc1 [Compound C0016]", "class": "class 1"}
{"molecule": "O=C(c1ccc([N+](=O)[O-])cc1)N1CCC2(CC1)OCCN2S(=O)(=O)c1ccc([N+](=O)[O-])cc1 [Compound C0022]", "class": "class 0"}
{"molecule": "CCCCc1ccc(S(=O)(=O)N2CCC3(CC2)OCCN3S(=O)(=O)c2ccc(CCCC)cc2)cc1 [Compound C0030]", "class": "class 1"}
{"molecule": "CC(=O)c1ccc(S(=O)(=O)N2CCC3(CC2)OC(CN(C)C)CN3S(=O)(=O)c2ccc(C(C)=O)cc2)cc1 (stereo not drawn) [Compound C0065]", "class": "class 1"}
{"molecule": "O=C1CNC2(CCN(S(=O)(=O)c3ccc(O)cc3)CC2)N1Cc1ccccc1 [Compound C0148M]", "class": "class 0"}
{"molecule": "COC(=O)c1ccc(S(=O)(=O)N2CCC3(CC2)OCCN3S(=O)(=O)c2ccc(C(=O)OC)cc2)cc1 [Compound C0028]", "class": "class 1"}
{"molecule": "CC(=O)c1ccc(C(=O)N2CCC3(CC2)OCCN3S(=O)(=O)c2ccc(C(C)=O)cc2)cc1 [Compound C0052]", "class": "class 1"}
{"molecule": "CC(=O)c1ccc(S(=O)(=O)N2CCC3(CC2)NCC(=O)N3Cc2ccccc2)cc1 [Compound C0082M]", "class": "class 0"}

* * *

target: mu opiate receptor (MOR) (Rattus norvegicus); construct: from tissue; host or cells: striatum (membrane preparation); assay: MOR agonist activity using [35S]GTPgS binding assay in striatal membranes; type: biochemical; conditions: 1 μM + BFNA; Series C-1 table
quantity: MOR agonist activity ([35S]GTPgS binding to Gao) (%)

{"compound": "O=S(=O)(c1ccc(Cl)cc1)N1CCC2(CC1)OCCN2S(=O)(=O)c1ccc(Cl)cc1 [Compound C0067]", "units_label": "%", "val": 33.5}
{"compound": "CC(=O)c1ccc(S(=O)(=O)N2CCC3(CC2)OCCN3S(=O)(=O)c2ccc(C(C)=O)cc2)cc1 [Compound C0011]", "units_label": "%", "val": 19.0}
{"compound": "CC(=O)c1ccc(S(=O)(=O)N2CCC3(CC2)NCC(=O)N3Cc2ccccc2)cc1 [Compound C0082M]", "units_label": "%", "val": 97.6}
{"compound": "O=C(c1ccc([N+](=O)[O-])cc1)N1CCC2(CC1)OCCN2C(=O)c1ccc([N+](=O)[O-])cc1 [Compound C0032]", "units_label": "%", "val": 80.9}
{"compound": "O=C1CN(Cc2ccccc2)C2(CCN(S(=O)(=O)c3cc(Cl)c(O)c(Cl)c3)CC2)N1 [Compound C0139M]", "units_label": "%", "val": 51.0}
{"compound": "CC(=O)c1ccc(S(=O)(=O)N2CCC3(CC2)OCC(CCCCN(C)C)N3S(=O)(=O)c2ccc(C(C)=O)cc2)cc1 (stereo not shown) [Compound C0080]", "units_label": "%", "val": 167.1}
{"compound": "O=S(=O)(c1cccc(OC(F)(F)F)c1)N1CCC2(CC1)OCCN2S(=O)(=O)c1cccc(OC(F)(F)F)c1 [Compound C0005]", "units_label": "%", "val": 166.4}
